Hello, the source for this data is the supplement of paper PMC10065799, in case you need it.

- System tested: c-Src SH2;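 note: peptide library displayed on the E. coli surface as eCPX fusions, selected cells deep-sequenced, score is each peptide's frequency after selection divided by its frequency in the input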
- Measurement description: SH2 binding enrichment of the phosphorylated peptide, bacterial display (enrichment ratio); higher = better substrate or ligand; peptides without Tyr show the background
Measured endpoint: SH2 binding enrichment

// known answers, use as guide
Residue string	SH2 binding enrichment
FSNVLYRPRGA [TMIGD2_Y197_YF]	0.416
TLLAFYMGNFS [GLB1_Y552_P549L]	0.464
SVQIVYKPVDL [MAPT_Y627]	0.515

I. FMRGMYFRMKD [PLA2G6_Y541_YF]
II. RFLERYIFNRE [HLA-DPB1_Y57_YF]
III. SSSPTYPDLPF [GLI3_Y168]
Qu. Put these in order: smallest SH2 binding enrichment first, largest last. // format: requested-order list of labels
Ans. III, I, II

---

- Test system: c-Src
- Measurement description: phosphorylation enrichment, bacterial display (enrichment ratio); higher = better substrate or ligand; peptides without Tyr show the background
Measured endpoint: phosphorylation enrichment
Form field (numeric): enter value without unit.

Residue string	phosphorylation enrichment
FGSLLYKYAFK [FANCD2_Y458]	0.392
GQSKGYRPKLF [SIPA1L3_Y1376_YF]	0.412
EEETDYTPVWC [UROD_Y30_G25E]	0.503
GDKKAYVRLAP [RPL23A_Y137_E133D]	0.449
CPSLPYSPVSS [CAMKK2_Y128]	0.787
DHKRQYELLKL [KIF4B_Y684_R680H]	0.411
KSRQIYDAFIM [GRK3_Y109_R104K_YF]	9.72
FSTSPYLLEAA [BRIP1_Y921_YF]	1.57

Entry EESREYDRLYE [PIK3R1_Y463_K459E] — recorded phosphorylation enrichment = 0.714

Entry PQGVGYPPQQQ [EP300_Y2219] — recorded phosphorylation enrichment = 0.579

Entry IDAVCYFRMEN [NPHS2_Y194_I192V_YF] — recorded phosphorylation enrichment = 0.873

Entry PMFHSYVSLPF [PLXNA2_Y293_K289M] — recorded phosphorylation enrichment = 0.751

Entry AKNKDYMSIIR [GNE_Y197] — recorded phosphorylation enrichment = 0.452

Entry NRLNDYIFSFD [RARS1_Y516] — recorded phosphorylation enrichment = 0.555

Entry TLNHQYDYTFH [CSNK1A1_Y292_D297H] — recorded phosphorylation enrichment = 1.16

---

- System tested: FGFR3 (UniProt P22607)
- Sequence (P22607 whole entry, looked up): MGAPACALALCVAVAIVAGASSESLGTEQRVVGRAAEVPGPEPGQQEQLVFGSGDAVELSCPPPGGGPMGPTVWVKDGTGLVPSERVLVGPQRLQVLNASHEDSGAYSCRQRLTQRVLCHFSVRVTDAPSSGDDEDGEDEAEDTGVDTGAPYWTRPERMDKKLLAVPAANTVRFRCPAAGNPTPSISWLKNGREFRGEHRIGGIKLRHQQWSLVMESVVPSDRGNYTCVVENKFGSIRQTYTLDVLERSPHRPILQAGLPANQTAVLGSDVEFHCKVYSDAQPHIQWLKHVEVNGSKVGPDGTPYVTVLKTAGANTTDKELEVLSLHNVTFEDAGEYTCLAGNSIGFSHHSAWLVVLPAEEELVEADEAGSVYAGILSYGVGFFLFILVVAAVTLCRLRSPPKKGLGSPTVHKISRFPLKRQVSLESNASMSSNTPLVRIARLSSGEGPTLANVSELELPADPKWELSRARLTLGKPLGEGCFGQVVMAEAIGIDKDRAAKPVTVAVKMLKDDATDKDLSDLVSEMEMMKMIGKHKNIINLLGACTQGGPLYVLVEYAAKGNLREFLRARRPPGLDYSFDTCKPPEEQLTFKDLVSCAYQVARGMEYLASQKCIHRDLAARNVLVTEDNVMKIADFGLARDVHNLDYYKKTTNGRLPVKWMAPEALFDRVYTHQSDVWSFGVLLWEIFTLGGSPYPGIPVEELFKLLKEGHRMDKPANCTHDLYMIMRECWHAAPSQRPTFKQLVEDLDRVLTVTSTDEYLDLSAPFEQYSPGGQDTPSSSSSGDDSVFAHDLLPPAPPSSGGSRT
- Measurement description: phosphorylation enrichment, bacterial display (enrichment ratio); higher = better substrate or ligand; peptides without Tyr show the background
Measured endpoint: phosphorylation enrichment
Form field (numeric): enter value without unit.

Residue string	Observed result
PLFKICVAELI [MRPL28_Y230_Y230C]	1.14

Entry AKQVGYENAGT [PC_Y304] — recorded phosphorylation enrichment = 0.549

Entry VKMLPYTEVTR [GDI1_Y93_L92P] — recorded phosphorylation enrichment = 0.49

---

Each entry below carries its recorded phosphorylation enrichment.
- Test system: Fer (mouse)
- Measurement description: phosphorylation enrichment, bacterial display (enrichment ratio); higher = better substrate or ligand; peptides without Tyr show the background
Form field (numeric): enter value without unit.

Residue string	Measured endpoint	Observed result
NIKKEYAKMVQ [PMS2_Y181]	phosphorylation enrichment	0.294
EDSEFYKAFEE [CASQ2_Y179_YF]	phosphorylation enrichment	0.4
KLKRSYSSRDI [USP8_Y717_P720R]	phosphorylation enrichment	0.371
KMKGDYYCYLA [YWHAG_Y130_R132C]	phosphorylation enrichment	0.895
SPFEVYVDKSQ [FLNA_Y373]	phosphorylation enrichment	0.499
INASGYRIGPA [ACSM1_Y477]	phosphorylation enrichment	0.467

Entry GPKFGYDEIDN [ACOX1_Y232] — recorded phosphorylation enrichment = 0.344

Entry DHTVNYVLKCR [PLEKHG4_Y1068_R1064H] — recorded phosphorylation enrichment = 0.512

Entry RSSPVYVGRVV [TGM2_Y219] — recorded phosphorylation enrichment = 0.945

Entry QPGTDYKIYRY [FN1_Y1970_L1974R] — recorded phosphorylation enrichment = 0.618

Entry VKMLPYTEVTR [GDI1_Y93_L92P] — recorded phosphorylation enrichment = 0.282

Entry ETDPRYFDEEF [AKT1_Y437_T435P] — recorded phosphorylation enrichment = 0.6

Entry HSDFQYSQRSQ [PKP2_Y168_YF] — recorded phosphorylation enrichment = 0.733

Entry CRPPYYHRNCM [HGD_Y334_F329C] — recorded phosphorylation enrichment = 0.458
